Tested on: NCI-H292 lung cancer cells
Assay: FDA drug screening, complete media vs cholesterol-free media with simvastatin (TABLE 2)
Format: cell-based, human
Conditions: complete media minus cholesterol-free media + simvastatin (0.04 μM); >0 enhanced anti-cancer activity, about 0 neutral, <0 antagonist
Counter-ions that a name gives are not always drawn.
Outcome label depends on Difference relative to -0.02: at/above gives TRUE, below gives FALSE.

Sample answers from the record:
Cc1c(O)c(=O)ccn1C	TRUE
CC(=O)O[C@H]1C[C@@]2(C)[C@@H](C[C@@H](O)[C@H]3[C@@]4(C)CC[C@@H](O)[C@@H](C)[C@@H]4CC[C@@]32C)/C1=C(\CCC=C(C)C)C(=O)O [Fusidic acid (sodium salt)]	FALSE
O=C1[C@@H]2[C@H]3CC[C@H](C3)[C@@H]2C(=O)N1C[C@@H]1CCCC[C@H]1CN1CCN(c2nsc3ccccc23)CC1 [Lurasidone (Hydrochloride)]	FALSE
Nc1nc2[nH]cc(CCc3ccc(C(=O)N[C@@H](CCC(=O)O)C(=O)O)cc3)c2c(=O)[nH]1 [Pemetrexed (disodium hemipenta hydrate)]	TRUE
CN(C)CC/C=C1/c2ccccc2Sc2ccc(Cl)cc21	FALSE

Prompt line: Has CCCCCCCCN=c1ccn(CCCCCCCCCCn2ccc(=NCCCCCCCC)cc2)cc1 [Octenidine (dihydrochloride)] a recorded Difference greater than or equal to -0.02?
Response line: TRUE

Prompt line: Has CCC(=O)c1c(O)cc(O)cc1O a recorded Difference greater than or equal to -0.02?
Response line: FALSE

Prompt line: Has CCCN[C@@H]1CCc2nc(N)sc2C1 [Dexpramipexole (dihydrochloride)] a recorded Difference greater than or equal to -0.02?
Response line: TRUE

Prompt line: Has Cc1oncc1C(=O)Nc1ccc(C(F)(F)F)cc1 [Leflunomide] a recorded Difference greater than or equal to -0.02?
Response line: FALSE

Prompt line: Has OB1OCc2cc(F)ccc21 a recorded Difference greater than or equal to -0.02?
Response line: FALSE

Prompt line: Has CC[C@H](C)[C@H](N)C(=O)O a recorded Difference greater than or equal to -0.02?
Response line: FALSE

Prompt line: Has CC(C)NCC(O)COc1cccc2ccccc12 (stereo not drawn) [Propranolol (hydrochloride)] a recorded Difference greater than or equal to -0.02?
Response line: TRUE

----------
System: NCI-H292 lung cancer cells
Experiment: FDA drug screening, complete media vs cholesterol-free media without statin (TABLE 1)
Assay type: cell-based, human
Details: Complete minus Cholesterol-free; […]
Counter-ions that a name gives are not always drawn. Peptide text beside a SMILES is read from it.
# Difference per record follows

CCNC(=O)[C@@H]1CCCN1C(=O)[C@H](CCCNC(=N)N)NC(=O)[C@H](CC(C)C)NC(=O)CNC(=O)[C@H](Cc1ccc(O)cc1)NC(=O)[C@H](CO)NC(=O)[C@H](Cc1c[nH]c2ccccc12)NC(=O)[C@H](Cc1c[nH]cn1)NC(=O)[C@@H]1CCC(=O)N1 [Fertirelin] (HELM PEPTIDE1{[Glp].H.W.S.Y.G.L.R.P.[CCN[*:1]]}$$$$V2.0)	−0.12
COc1ccc([C@@H]2CC(=O)c3c(O)cc(O[C@@H]4O[C@H](CO[C@@H]5O[C@@H](C)[C@H](O)[C@@H](O)[C@H]5O)[C@@H](O)[C@H](O)[C@H]4O)cc3O2)cc1O [Hesperidin]	−0.08

Prompt line: Query Difference for COc1ccc2c3c1O[C@H]1C[C@@H](O)C=C[C@@]31CCN(C)C2 [Galanthamine (hydrobromide)]
Response line: −0.25

Origin of measurements: patent US20250144067A1
